// reported effect of inhibiting TFPI, FXa activity assay, Ab 20 nM for each item listed
# TARGET_DESC: recombinant human TFPI (tissue factor pathway inhibitor) (human, UniProt P10646 29-304)
# ASSAY_NAME: cell-based or functional assay
REPORTED_PROPERTY: effect of inhibiting TFPI, FXa activity assay, Ab 20 nM

>>> value_observed("clone 1214 (antibody, V domains shown) VH: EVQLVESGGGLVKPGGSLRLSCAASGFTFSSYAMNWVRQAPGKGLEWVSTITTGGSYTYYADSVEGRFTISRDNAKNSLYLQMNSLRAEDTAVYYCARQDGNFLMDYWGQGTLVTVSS VL: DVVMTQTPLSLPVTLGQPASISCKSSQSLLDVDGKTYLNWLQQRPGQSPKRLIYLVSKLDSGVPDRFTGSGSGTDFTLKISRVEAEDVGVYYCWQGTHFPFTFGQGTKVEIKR")
"~77%"
>>> value_observed("clone 3241 (antibody, V domains shown, scFv on yeast at selection; human IgG4/kappa IgG as purified; also called No. 3241 antibody) VH: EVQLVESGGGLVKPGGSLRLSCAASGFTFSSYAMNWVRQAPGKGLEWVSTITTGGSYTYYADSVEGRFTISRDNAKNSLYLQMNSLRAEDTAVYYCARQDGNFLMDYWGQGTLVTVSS VL: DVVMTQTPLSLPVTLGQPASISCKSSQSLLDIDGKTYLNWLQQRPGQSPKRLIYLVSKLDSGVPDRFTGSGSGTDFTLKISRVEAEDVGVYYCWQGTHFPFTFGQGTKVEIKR")
"~82%"
>>> value_observed("clone 2 (antibody, V domains shown) VH: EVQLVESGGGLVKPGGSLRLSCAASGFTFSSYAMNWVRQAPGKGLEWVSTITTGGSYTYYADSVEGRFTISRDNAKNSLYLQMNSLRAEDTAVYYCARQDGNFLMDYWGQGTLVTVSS VL: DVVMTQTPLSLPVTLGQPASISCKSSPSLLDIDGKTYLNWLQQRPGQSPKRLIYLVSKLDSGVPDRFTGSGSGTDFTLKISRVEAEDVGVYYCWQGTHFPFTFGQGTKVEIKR")
"~76%"
>>> value_observed("clone 1015 (antibody, V domains shown) VH: EVQLVESGGGLVKPGGSLRLSCAASGFTFSSYAMNWVRQAPGKGLEWVSTITTGGSHTYYADSVEGRFTISRDNAKNSLYLQMNSLRAEDTAVYYCARQDGNFLMDYWGQGTLVTVSS VL: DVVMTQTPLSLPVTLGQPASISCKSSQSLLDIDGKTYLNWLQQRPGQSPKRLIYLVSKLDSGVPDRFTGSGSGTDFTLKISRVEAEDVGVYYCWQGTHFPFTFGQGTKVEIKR")
"~83%"
>>> value_observed("clone 4017 (antibody, V domains shown) VH: EVQLVESGGGLVKPGGSLRLSCAASGFTFSSYAMNWVRQAPGKGLEWVGTITTGGSYTYYADSVQGRFTISRDNAKNSLYLQMNSLRAEDTAVYYCARQDGYFLMDYWGQGTLVTVSS VL: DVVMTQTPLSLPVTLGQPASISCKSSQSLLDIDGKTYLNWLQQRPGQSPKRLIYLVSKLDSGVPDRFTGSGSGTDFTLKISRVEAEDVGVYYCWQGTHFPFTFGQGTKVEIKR")
"~90%"
>>> value_observed("clone 8 (antibody, V domains shown) VH: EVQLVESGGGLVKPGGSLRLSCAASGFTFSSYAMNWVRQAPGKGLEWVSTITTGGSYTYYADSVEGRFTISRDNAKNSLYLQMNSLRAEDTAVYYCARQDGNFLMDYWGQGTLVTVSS VL: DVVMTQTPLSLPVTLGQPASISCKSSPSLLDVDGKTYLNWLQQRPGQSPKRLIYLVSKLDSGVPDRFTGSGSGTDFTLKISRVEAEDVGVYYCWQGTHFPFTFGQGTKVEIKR")
"~80%"
>>> value_observed("clone 1123 (antibody, V domains shown) VH: EVQLVESGGGLVKPGGSLRLSCAASGFTFSSYAMNWVRQAPGKGLEWVSTITTGGSHTYYADSVEGRFTISRDNAKNSLYLQMNSLRAEDTAVYYCARQDGHFLMDYWGQGTLVTVSS VL: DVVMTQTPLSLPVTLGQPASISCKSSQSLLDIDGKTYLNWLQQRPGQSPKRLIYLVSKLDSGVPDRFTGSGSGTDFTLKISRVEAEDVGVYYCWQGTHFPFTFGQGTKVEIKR")
"~88%"
>>> value_observed("clone 1023 (antibody, V domains shown, scFv on yeast at selection; human IgG4/kappa IgG as purified) VH: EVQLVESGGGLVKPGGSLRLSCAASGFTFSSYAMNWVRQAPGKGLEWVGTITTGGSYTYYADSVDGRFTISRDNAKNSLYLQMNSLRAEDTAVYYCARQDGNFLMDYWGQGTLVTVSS VL: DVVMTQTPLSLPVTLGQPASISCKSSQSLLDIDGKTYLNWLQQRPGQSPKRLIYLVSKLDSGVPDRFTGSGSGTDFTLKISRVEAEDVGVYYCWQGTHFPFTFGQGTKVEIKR")
"~86%"
>>> value_observed("clone 13 (antibody, V domains shown) VH: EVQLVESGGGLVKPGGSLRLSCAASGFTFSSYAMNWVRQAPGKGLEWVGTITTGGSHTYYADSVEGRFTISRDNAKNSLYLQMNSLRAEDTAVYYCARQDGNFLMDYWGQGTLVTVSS VL: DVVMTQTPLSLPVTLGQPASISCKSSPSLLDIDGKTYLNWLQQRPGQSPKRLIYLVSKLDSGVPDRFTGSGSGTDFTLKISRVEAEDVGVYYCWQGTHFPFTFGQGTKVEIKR")
"~85%"
>>> value_observed("clone 1202 (antibody, V domains shown, scFv on yeast at selection; human IgG4/kappa IgG as purified; also called No. 1202 antibody) VH: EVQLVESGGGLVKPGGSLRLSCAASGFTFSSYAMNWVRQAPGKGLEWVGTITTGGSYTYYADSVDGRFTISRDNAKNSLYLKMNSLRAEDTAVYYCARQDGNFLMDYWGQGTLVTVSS VL: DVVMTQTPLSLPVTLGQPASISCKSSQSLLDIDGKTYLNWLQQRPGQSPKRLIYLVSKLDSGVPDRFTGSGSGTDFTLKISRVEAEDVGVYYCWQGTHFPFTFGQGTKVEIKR")
"~87%"
